Cited source for all entries: ChEMBL document CHEMBL4431344

Biological target: Genome polyprotein (Hepatitis C virus genotype 1b (strain HC-J4) (HCV))
Sequence (O92972 2420-3010 limits assumed): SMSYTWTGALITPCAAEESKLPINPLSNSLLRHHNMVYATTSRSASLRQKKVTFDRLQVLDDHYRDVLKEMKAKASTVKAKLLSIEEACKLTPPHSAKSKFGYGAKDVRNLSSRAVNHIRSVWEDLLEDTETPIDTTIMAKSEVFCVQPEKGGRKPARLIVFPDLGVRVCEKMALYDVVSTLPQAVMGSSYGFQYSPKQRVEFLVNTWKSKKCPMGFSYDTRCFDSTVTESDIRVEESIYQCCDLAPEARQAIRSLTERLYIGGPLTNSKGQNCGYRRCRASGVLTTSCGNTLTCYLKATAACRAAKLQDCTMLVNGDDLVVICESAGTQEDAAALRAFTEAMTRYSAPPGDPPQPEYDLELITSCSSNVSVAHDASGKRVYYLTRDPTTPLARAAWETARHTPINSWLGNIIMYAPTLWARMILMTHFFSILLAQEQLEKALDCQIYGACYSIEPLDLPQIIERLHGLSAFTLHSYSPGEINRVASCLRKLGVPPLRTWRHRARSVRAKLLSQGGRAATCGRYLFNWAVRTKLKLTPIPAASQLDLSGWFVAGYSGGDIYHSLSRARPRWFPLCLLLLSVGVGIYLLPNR
Assay: Inhibition of HCV genotype 1b J4 NS5B RNA dependent RNA polymerase
result.type: IC50 (µM)
Could you give me the number in µM? Just the number is fine.

- compound: "COP(=O)(Nc1cc(-c2ccc(C#Cc3ccsc3)cc2)sc1C(=O)O)c1ccc(C)cc1C (centres undefined)"
  IC50 / µM: 0.0092
- compound: "COP(=O)(Nc1cc(-c2ccc(-c3cc4ncccc4o3)cc2)sc1C(=O)O)c1ccc(C)cc1C (centres undefined)"
  IC50 / µM: 0.0054
- compound: "COP(=O)(Nc1cc(-c2ccc(F)cc2)sc1C(=O)O)c1ccc(C)cc1C (centres undefined)"
  IC50 / µM: 0.118

stdin: Name the recorded IC50 for COP(=O)(Nc1cc(-c2ccc(-c3cc4nc(C)ccn4n3)cc2)sc1C(=O)O)c1ccc(C)cc1C (centres undefined) .
stdout: 0.0078

stdin: So what's the measured IC50 for this one? CCCOP(=O)(Nc1cc(-c2ccc(Cl)cc2)sc1C(=O)O)c1ccc(C)cc1C (centres undefined)
stdout: 0.147

stdin: What measured IC50 goes with COP(=O)(c1ccc(C)cc1C)N(C)c1cc(-c2ccc(Cl)cc2)sc1C(=O)O (centres undefined) ?
stdout: 0.059

stdin: Returns the measured IC50 for the input compound. Input: Cc1ccc(P(=O)(Nc2cc(-c3ccc(Cl)cc3)sc2C(=O)O)OCC2CCOCC2)c(C)c1 (centres undefined)
stdout: 0.154
